test system: OVCAR-5 ovarian; test: NCI-60 one-dose screen, 48 h; conditions: 10 µM unless noted
Compounds without any hit were thinned out: in the full panel of roughly 83,000, 20% have a hit. Active and inactive are the calls of the source. Rule for the calls: active = growth percent below 10; inactive = the rest.
Hello, when you answer, please use one of the following outcomes: active, inactive

{"columns": ["Compound", "Assigned category"],
 "data": [
  ["O=C(NNC(=O)c1ccc(NC(=O)c2ccccn2)cc1)Nc1ccc([N+](=O)[O-])cc1", "inactive"],
  ["C=C(C)[C@@H]1CC[C@]2(C(=O)O)CC[C@]3(C)[C@H](CC[C@@H]4[C@@]5(C)CCC(NC(=O)c6cccc(OC(C)=O)c6OC(C)=O)C(C)(C)[C@@H]5CC[C@]43C)[C@@H]12 (stereo partly drawn)", "active"],
  ["Cc1ccccc1/C=C/C(=O)c1cccc(OCCCOc2cccc(C(=O)/C=C/c3ccccc3C)c2)c1", "inactive"],
  ["COC(=O)c1nc(-c2ccccc2)oc1S(=O)(=O)Cc1ccccc1", "inactive"],
  ["COc1ccc(/C=N/C2=C(C#N)C(c3ccccc3)c3ccc4ccccc4c3O2)cc1 (stereo not drawn)", "inactive"],
  ["CCOC(=O)c1c(C(=O)c2cn(C)c3ccc(Br)cc23)c(-c2cn(C)c3ccc(Br)cc23)n(NC(=O)OC(C)(C)C)c1C", "inactive"]
]}

Q. Could you please tell me the result logged for CC1=C([Se]CC(OC(=O)CC[Se]c2ccccc2)C(=O)NC(C)(C)C)C(=O)c2ccccc2C1=O (stereo not drawn) in this assay?
A. active

Q. Each compound tested received a call. Report the one for "C=CCN=c1sc2c(n1NC(=O)c1cc3ccc1CCc1ccc(cc1)CC3)C(=O)c1ccccc1C2=O" .
A. active
